The reported measurements were obtained from the Human Domainome abundance scans (Beltran et al. 2025).

B1: Ankyrin-1, residues 1405 to 1484; numbered along this chain, P16157 (parent)
chain: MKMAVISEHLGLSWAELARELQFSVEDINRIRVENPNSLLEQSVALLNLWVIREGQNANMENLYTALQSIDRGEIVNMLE

- Variants of: B1
- Assay Overview: abundance fitness (aPCA) (normalised: wild type 0, dead -1); higher = more abundant; growth selection in yeast, the domain comes from the species named
- Particulars: Homo sapiens
Recorded Endpoint: abundance fitness
Give the value as a plain number.

Indicate the recorded abundance fitness value for this variant: V25S
0.002

Indicate the recorded abundance fitness value for this variant: G55E
-0.266

Indicate the recorded abundance fitness value for this variant: Y64Q
-0.594

Indicate the recorded abundance fitness value for this variant: A58C
0.031

Indicate the recorded abundance fitness value for this variant: M60R
-0.704
